B1: library; numbered along this chain (parent)
chain: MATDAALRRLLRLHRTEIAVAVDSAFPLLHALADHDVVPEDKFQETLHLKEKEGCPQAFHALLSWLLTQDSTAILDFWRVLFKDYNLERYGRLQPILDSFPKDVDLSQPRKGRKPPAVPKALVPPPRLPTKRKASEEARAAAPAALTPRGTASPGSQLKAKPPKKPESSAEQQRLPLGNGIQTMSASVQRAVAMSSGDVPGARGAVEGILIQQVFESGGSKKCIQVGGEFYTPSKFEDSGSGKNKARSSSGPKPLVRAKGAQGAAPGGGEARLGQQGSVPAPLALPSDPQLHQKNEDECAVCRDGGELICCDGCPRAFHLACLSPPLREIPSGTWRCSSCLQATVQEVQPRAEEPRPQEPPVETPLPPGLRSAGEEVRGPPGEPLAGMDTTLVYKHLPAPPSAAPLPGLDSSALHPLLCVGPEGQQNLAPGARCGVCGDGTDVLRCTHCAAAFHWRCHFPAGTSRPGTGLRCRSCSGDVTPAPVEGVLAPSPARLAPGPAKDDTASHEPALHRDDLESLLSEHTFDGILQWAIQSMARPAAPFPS

- Variants of: B1
- experiment.summary: AIRE transcriptional activation functional score (insulin promoter-GFP; nonsense median 0, synonymous median 1) (normalised score); higher = higher AIRE activity (more reporter activation)
- study.conditions: with insulin promoter-GFP reporter in HEK293
value.type: AIRE transcriptional activation functional score
Give bare numbers.

{"mutation.name": "F543I", "observed": 0.17}

Please look at the items below and tell me AIRE transcriptional activation functional score for each one, in order.
1. P400C
2. L10H
3. K52F
4. P154Q
5. G274E
6. Q293G

0.972
1.75
0.16
-0.0735
0.611
1

Here are 3 variants. What values of AIRE transcriptional activation functional score were reported for them?
1. P355Q
2. P492F
3. L29I

[1.24, 1.04, 0.187]

Quick request: AIRE transcriptional activation functional score for each listed item, please.
1. P499V
2. F215T
3. A482R
4. S169I
5. D23W
6. Q534N
7. P286K

1.21
-0.146
0.557
1.2
-1
1.8
0.495

Give me AIRE transcriptional activation functional score for each of these variants, listed below.
1. C472N
2. P266I
3. A413F
4. F543W
5. S187K

1. 0.0317
2. 1.13
3. 0.975
4. 1.23
5. 0.853
